- Target: T1, recombinant human Trop-2-his protein (ACCESSION NO.: NP_002344.2, AA 1-274) (human, UniProt P09758 27-274)
- T1 construct: range 27-274; also called recombinant human Trop-2 protein; recombinant human Trop-2 extracellular domain; not shown: his tag
- T1 sequence (looked up): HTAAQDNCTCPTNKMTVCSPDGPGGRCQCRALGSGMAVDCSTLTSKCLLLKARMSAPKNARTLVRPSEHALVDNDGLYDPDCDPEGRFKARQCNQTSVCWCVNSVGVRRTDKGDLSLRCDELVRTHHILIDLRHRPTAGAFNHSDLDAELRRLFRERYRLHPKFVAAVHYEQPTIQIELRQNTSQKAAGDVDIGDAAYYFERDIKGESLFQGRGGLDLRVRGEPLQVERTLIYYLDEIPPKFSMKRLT
- Assay: ELISA, coated Trop-2-his 0.2 µg/ml
EC50 values for the binders below.
Please answer in the form of a number followed by its unit of measurement.

Worked examples, 3 binders total:
>  <Binder>
chimeric antibody ch4-3 (antibody, human IgG1, V domains shown) VH: QVQLQQSGPELVKPGASVKMSCKASGFTFTDYVIGWVKQRTGQGLEWIGEIYLGSGTIYYTEKFKGKATLTADTSSNTAYMQLSSLTSEDSAVYFCARGSIFPFDYWGQGTTLTVSS VL: QIVLTQSPAIMSASPGEKVTMTCSASSSVSYMYWYQQKPGSSPRLLIYDTSTLASGVPVRFSGSGSGTSYSLTISRMEAEDAATYYCQQWSSYPYTFGGGTKLEIK

>  <Assay result>
320 pM

$$$$
>  <Binder>
Sacituzumab (antibody, human IgG1, kappa, V domains shown, expressed in HEK293; also called control antibody Sacituzumab; Saituzumab) VH: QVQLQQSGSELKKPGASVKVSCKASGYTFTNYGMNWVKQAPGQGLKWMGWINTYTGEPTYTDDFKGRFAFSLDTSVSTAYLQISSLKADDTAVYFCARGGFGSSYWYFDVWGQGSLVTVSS VL: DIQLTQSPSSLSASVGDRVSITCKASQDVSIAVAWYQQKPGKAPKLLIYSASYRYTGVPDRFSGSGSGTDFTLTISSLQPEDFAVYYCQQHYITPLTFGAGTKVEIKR

>  <Assay result>
271 pM

$$$$
>  <Binder>
chimeric antibody ch3-11 (antibody, human IgG1, V domains shown) VH: QVQLQQPGAELVKPGSSVKLSCKASGYTFTSYWMYWVKQRPGQGLEWIGEINPSNGRTNYNEKFKSKATLTVDKSSSTAYMQFSSLTSEDSAVYYCTREGHNYDGSLGAMDHWGQGTSVTVSS VL: DVVVTQTPLSLPVSFGDQVSISCRSSQSLTNSYGNTFLSWYLHKPGQSPQLLLYGISNRFSGVPDRFSGSGSGTDFTLKINTIKPEDLGMYYCFQSTHQPYTFGGGTKLEIK

>  <Assay result>
315 pM

$$$$

Let us move to another entry and its EC50.
What value of EC50 has been recorded for this entry: chimeric antibody ch11-4 (antibody, human IgG1, V domains shown) VH: QVQLQQPGAELVRPGASVNLSCKASGYTFTSYWINWVKQRPGQGLEWIGNIYPSNSYTNYNQKFKDTATLTVDKSSSTAYMQLSSPTSEDSAVYFCSSYRSDGFAYWGQGTLVTVSA VL: DILLTQSPAILSVSPGEKVSFSCRASQNIGTSIHWYQQRTNGSPRLLIEFASESISGIPSRFSGSGSGTDFTLTINSVESEDIADYYCQQSNSWPFTFGGGTKLEIK
237 pM

Attribution: patent US20240092930A1
